target: IgG1 (product of Sigma-Aldrich)
measurement_description: SPR (Biacore T100), Fc-binding protein immobilized on CM5 chip, IgG1 in flow
measurement_kind: Kd (nM)
Return type: number; implicit unit nM.

| binder | recorded_number |
| --- | --- |
| FcR36i-containing Fc-binding protein (SEQ ID NO: 9) (receptor) KIEEAMGMRTGDMPKAEVILEPPWNRVLEQDSVTLKCRGAHSPDDDSTQWFHNERLIPSQASSFIIDSASVDDSGEYRCQTSLSTLSDPVQLEVHIGWLLLQAPRWEFVEGEPIHLRCHSWRNTALHKVMFLQNGKVRKYFHHNSDFVIPKATLEDSGSYSCRGLIGRKKVSSGAVDITVTQGGHHHHHH | 43 |

Next binder, please.
Request: Answer with reported Kd of FcR9_F, Fc-binding protein having phenylalanine substituting for valine at position 192 of FcR9 (SEQ ID NO: 20) (receptor) KIEEAMGMRTEDLPKAEVILEPQWNRVLEKDSVTLKCRGAYSPEDNSTQWFHNESLISSQASSYLIDAATVDDSGEYRCQTSLSTLSDPVQLEVHIGWLLLQAPRWEFKEGDPIHLRCHSWKNTALHKVTYLQNGKGRKYFHHNSDFYIPKATLKDSGSYSCRGLFGSKNVSSETVNITITQGGHHHHHH
Result: 3300
